Ref: ChEMBL document CHEMBL3885861

species: Rattus norvegicus; assay: Open TG-GATES - Regimen: Daily Repeat; format: toxicity, organism-based, Sprague-Dawley; set-up: regimen Daily Repeat, gender Male, age 6 weeks; conditions: in vivo, po, 0 mg/kg, […], tissue Blood, route gavage, dose level Control, time 28 day
Recorded measurements of PT, one per entry

MOLECULE | PT
COc1ccc2[nH]c([S+]([O-])Cc3ncc(C)c(OC)c3C)nc2c1 (stereo unspecified) | 12.4 s
CC1=C(/C=C/C(C)=C/C=C/C(C)=C/CO)C(C)(C)CCC1 | 15.8 s
CN1C(=O)CN=C(c2ccccc2)c2cc(Cl)ccc21 | 12.3 s
CN(C)CCN(Cc1cccs1)c1ccccn1 | 16.1 s
CCOc1ccc(NC(=O)CC(C)O)cc1 (stereo unspecified) | 13.9 s
COC1=CC(=O)C[C@@H](C)[C@]12Oc1c(Cl)c(OC)cc(OC)c1C2=O | 12.3 s
CCCNC(=O)NS(=O)(=O)c1ccc(Cl)cc1 [CHLORPROPAMIDE] | 16.1 s
NC(N)=Nc1nc(CSCCC(N)=NS(N)(=O)=O)cs1 | 12.2 s
CN(C)CCCN1c2ccccc2CCc2ccccc21 | 15.4 s
CCOC(=O)CCC(=O)O[C@H]1[C@H](O[C@@H]2[C@@H](C)[C@H](O[C@H]3C[C@@](C)(OC)[C@@H](O)[C@H](C)O3)[C@@H](C)C(=O)O[C@H](CC)[C@@](C)(O)[C@H](O)[C@@H](C)C(=O)[C@H](C)C[C@@]2(C)O)O[C@H](C)C[C@@H]1N(C)C [ERYTHROMYCIN ETHYLSUCCINATE] | 16.4 s
NNC(=O)c1ccncc1 | 12 s
